# experimentalProtocol: Stability in simulated gastric fluid (SGF)
# Assay type: in vitro ADME
# statedConditions: pig, simulated gastric fluid (SGF) with porcine pepsin, pH 2
observable: half-life at 20 μM
Remember to quote the unit after the number.

Req: Any idea what its half-life at 20 μM is? The compound is `CC(=O)N[C@@H]1CCSC[C@@H](C(=O)N[C@@H](Cc2ccc(OCCN)cc2)C(=O)N[C@@H](Cc2ccc3ccccc3c2)C(=O)NC2(C(=O)N[C@@H](CCC(=O)O)C(=O)N[C@@H](CC(N)=O)C(=O)N[C@@H](CC(N)=O)C(N)=O)CCOCC2)NC(=O)[C@H](CCC(N)=O)NC(=O)[C@H](Cc2c[nH]c3ccccc23)NC(=O)[C@H]([C@@H](C)O)NC(=O)[C@@H](CCC(N)=O)NC1=O`
Resp: 10 h
